- System: MIWI (PIWIL1) piRISC loaded with L1MC piRNA (30 nt);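 further: 1 nM active piRISC with 0.1 nM target library at 33 °C single turnover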
- protocol.text: pre-steady-state target cleavage rate (min^-1); MIWI and MILI are mouse PIWI proteins and EfPiwi is from a freshwater sponge; tags in brackets are library labels; higher = faster piRNA-guided slicing of the target;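 further: 1 nM active piRISC with 0.1 nM target library at 33 °C single turnover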
- protocol.conditions: guide: L1MC piRNA 5'p-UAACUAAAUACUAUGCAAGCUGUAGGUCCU; auxiliary factor: 500 nM mouse GTSF1
The full ranking holds about 8,200 sequences; the median of “pre-steady-state target cleavage rate” is about 0.024, and the highest 2% start at about 1.3. What follows is part of a selection rich in the highest values, with near analogues and random picks from the rest.
Listed below: pre-steady-state target cleavage rate values for each entry.
Number, no unit, nothing else.

So for "UGGACCAACAGCUUGCAAAGUAUUUAGUUA" , the logged pre-steady-state target cleavage rate turned out to be 1.38

Noted for "UCCACCUACAGCUUGCAUAGUAUUAAGAAA" : its pre-steady-state target cleavage rate reads 0.351

For this sequence ( "UCGUCCUACAGCAUGCAUAGUAUUUAGUUA" ), measured pre-steady-state target cleavage rate is 1.26

Sample "UCCACCUACUGCUUGCAUAGUAUUUAGUUA" ; pre-steady-state target cleavage rate observed: 0.697

// recorded pre-steady-state target cleavage rate for "UGGACCUACAGCAUUGCAUAGUAUUUAGUUA" : 1.27

Value of pre-steady-state target cleavage rate reported for the sequence "UCGACCAACAGCUUGCAUUGUAUUUAGUUA" is 0.973

What the record says about "UCCACCUACACCUUGCAUAGUAUUUACAAA" : pre-steady-state target cleavage rate is 0.309

Entry under test: "UCGACCAACAGCUUGCUUAGUAUUUAGUUA" . Its pre-steady-state target cleavage rate was 1.47

# pre-steady-state target cleavage rate of "UCCUGGUACAGCAUGCAUAGUAUUUAGUAA" = 0.377

Entry under test: "UCCUCCUACACCUUGCAAAGUAUUUAGUUA" . Its pre-steady-state target cleavage rate was 0.831

The sequence "UCCUGGUACAGCUUGCCAUAGUAUUUAGUUA" showed pre-steady-state target cleavage rate equal to 0.0951

Recorded result, "UGCACCUACUGCUUGCAUAGUAUUUAGUUA" , pre-steady-state target cleavage rate: 1.16

According to the records, this sequence "AGGACCUAGAGCUUGCAAAGUAUUUAGUUA" displays pre-steady-state target cleavage rate of 1.17

Reported pre-steady-state target cleavage rate for "UCCACCUACAGCUUGGAAAGUAUUUAGUUA" was 1.01

The sequence listed as "UCCACCUCAGCUUGCAUAGUAUUUAGUUA" shows pre-steady-state target cleavage rate equal to 0.878

Field pre-steady-state target cleavage rate (entry "AGGACCUACAGCUUGCAUACUUUUUAGUUA" ) reads 0.0575
